molecular target: human TYK2 (Homo sapiens); construct: catalytic domain (amino acids 871-1187; catalog number 08-147); test: TYK2 inhibition assay; details: recombinant human TYK2 catalytic domain, polyGT substrate
pIC50: −log10 of the molar value.

{"compound": "CCc1cc(C(C#N)N2CCC(C(N)=O)CC2)ccc1N(C)c1cc2c(cn1)ncn2C (centres unmarked) [Compound 451]", "pIC50": "7.00 to 11.00"}
{"compound": "CCc1cc(C(C)(C)O)ccc1N(C)c1cc2c(cn1)ncn2C [Compound 103]", "pIC50": "7.00 to 11.00"}
{"compound": "CN(c1cc2c(cn1)ncn2C)c1ccc(C2CN(CC(F)(F)F)C2)cc1OC(F)F [Compound 364]", "pIC50": "< 6.00"}
{"compound": "CCc1cc(C2=CCN(C(=O)N(C)CC)CC2)ccc1N(C)c1cc2c(cn1)ncn2C [Compound 206]", "pIC50": "7.00 to 11.00"}
{"compound": "CCc1cc(C2CN(C(=O)CCC(F)(F)F)C2)ncc1N(C)c1cc2c(cn1)ncn2C [Compound 338]", "pIC50": "< 6.00"}
{"compound": "CCc1cc(OC2CCN(S(C)(=O)=O)C2)ccc1N(C)c1cc2c(cn1)ncn2C (centres unmarked) [Compound 110]", "pIC50": "7.00 to 11.00"}
{"compound": "CCc1cn(C2(CC#N)CN(S(C)(=O)=O)C2)nc1N(C)c1cc2c(cn1)ncn2C [Compound 310]", "pIC50": "< 6.00"}
{"compound": "CCc1cc(C2=CCN(C(=O)NC)CC2)ccc1N(C)c1cc2c(cn1)ncn2C [Compound 204]", "pIC50": "7.00 to 11.00"}
{"compound": "CCNC(=O)C1CN(c2cc(CC)c(N(C)c3cc4c(cn3)ncn4C)cn2)C1 [Compound 412]", "pIC50": "< 6.00"}
{"compound": "CCc1cc(C2=CCN(S(=O)(=O)CC(F)(F)F)CC2)ccc1N(C)c1cc2c(cn1)ncn2C [Compound 232]", "pIC50": "7.00 to 11.00"}
{"compound": "CCc1cc(CN2CCS(=O)(=O)CC2)ccc1N(C)c1cc2c(cn1)ncn2C [Compound 143]", "pIC50": "6.00 to 6.30"}
{"compound": "CCc1cc(CNC(=O)NC#N)ccc1N(C)c1cc2c(cn1)ncn2C [Compound 258]", "pIC50": "6.30 to 7.00"}
{"compound": "CCc1cc(C(C#N)N2CCN(C)CC2)ccc1N(C)c1cc2c(cn1)ncn2C (centres unmarked) [Compound 449]", "pIC50": "7.00 to 11.00"}
{"compound": "COc1ccc(S(=O)(=O)N2CCCCC2)cc1N(C)c1cc2c(cn1)ncn2C [Compound 314]", "pIC50": "< 6.00"}
{"compound": "COc1cc(C2CCN(C(=O)CC#N)CC2)ncc1N(C)c1cc2c(cn1)ncn2C [Compound 265]", "pIC50": "< 6.00"}
{"compound": "CC(C)S(=O)(=O)N1CC(c2ccc(N(C)c3cc4c(cn3)ncn4C)c(OC(F)F)c2)C1 [Compound 373]", "pIC50": "< 6.00"}
{"compound": "CCc1cc(CN(CC#N)S(C)(=O)=O)ncc1N(C)c1cc2c(cn1)ncn2C [Compound 344]", "pIC50": "6.30 to 7.00"}

====

molecular target: human TYK2 (Homo sapiens); construct: catalytic domain (amino acids 871-1187; catalog number 08-147); assay: TYK2 inhibition assay; details: recombinant human TYK2 catalytic domain, polyGT substrate
pIC50: −log10 of the molar value.
pIC50 for assorted compounds
test-readout: pIC50

{"compound": "CCc1cc(C(C#N)N2CCNC(=O)C2)ccc1N(C)c1cc2c(cn1)ncn2C (stereo not drawn)", "test-readout": "pIC50", "experimental-value": "7.00 to 11.00"}
{"compound": "CCc1cc(C2=CCN(C(=O)OCC#N)CC2)ccc1N(C)c1cc2c(cn1)ncn2C", "test-readout": "pIC50", "experimental-value": "7.00 to 11.00"}
{"compound": "CCc1cc(C2=CCN(C(=O)Nc3nncs3)CC2)ccc1N(C)c1cc2c(cn1)ncn2C", "test-readout": "pIC50", "experimental-value": "7.00 to 11.00"}
{"compound": "CCc1cc(-c2noc(C)n2)ccc1N(C)c1cc2c(cn1)ncn2C", "test-readout": "pIC50", "experimental-value": "7.00 to 11.00"}
{"compound": "CCc1cc(CN2CCN(C)CC2)ccc1N(C)c1cc2c(cn1)ncn2C", "test-readout": "pIC50", "experimental-value": "< 6.00"}
{"compound": "CCc1cc(N2CC(C(=O)OC)C2)ncc1N(C)c1cc2c(cn1)ncn2C", "test-readout": "pIC50", "experimental-value": "< 6.00"}
{"compound": "CCc1cc(C2=CCN(C(=O)OC(C)(C)C)CC2)ccc1N(C)c1cc2c(cn1)ncn2C", "test-readout": "pIC50", "experimental-value": "6.30 to 7.00"}
{"compound": "CCc1cc(CNC2COC2)ccc1N(C)c1cc2c(cn1)ncn2C", "test-readout": "pIC50", "experimental-value": "6.00 to 6.30"}
{"compound": "Cc1cc(-c2cncnc2)ccc1N(C)c1cc2c(cn1)ncn2C", "test-readout": "pIC50", "experimental-value": "6.00 to 6.30"}
{"compound": "CCc1ncncc1N(C)c1cc2c(cn1)ncn2C", "test-readout": "pIC50", "experimental-value": "< 6.00"}
{"compound": "CCc1cc(CN2CCN(S(C)(=O)=O)CC2)ccc1N(C)c1cc2c(cn1)ncn2C", "test-readout": "pIC50", "experimental-value": "7.00 to 11.00"}
{"compound": "CCc1cc(CNS(=O)(=O)C(F)F)ncc1N(C)c1cc2c(cn1)ncn2C", "test-readout": "pIC50", "experimental-value": "6.00 to 6.30"}
{"compound": "CCc1cc(-c2cnn(CC)c2)ccc1N(C)c1cc2c(cn1)ncn2C", "test-readout": "pIC50", "experimental-value": "6.30 to 7.00"}
{"compound": "CCc1cc(C2CCC2)ncc1N(C)c1cc2c(cn1)ncn2C", "test-readout": "pIC50", "experimental-value": "6.30 to 7.00"}
{"compound": "CN(c1ccc(O)cc1)c1cc2c(cn1)ncn2C", "test-readout": "pIC50", "experimental-value": "6.30 to 7.00"}
{"compound": "CCc1cc(-c2ccc(C#N)nc2)ccc1N(C)c1cc2c(cn1)ncn2C", "test-readout": "pIC50", "experimental-value": "7.00 to 11.00"}
{"compound": "CCc1cc(CNCC(F)(F)F)ccc1N(C)c1cc2c(cn1)ncn2C", "test-readout": "pIC50", "experimental-value": "6.30 to 7.00"}
{"compound": "CCc1ccccc1N(C)c1cc2c(cn1)ncn2C", "test-readout": "pIC50", "experimental-value": "6.30 to 7.00"}

====

Target: human TYK2 (Homo sapiens, UniProt P29597)
Construct: catalytic domain (amino acids 871-1187; catalog number 08-147); purchased Carna Biosciences 08-147
Sequence (P29597 871-1187): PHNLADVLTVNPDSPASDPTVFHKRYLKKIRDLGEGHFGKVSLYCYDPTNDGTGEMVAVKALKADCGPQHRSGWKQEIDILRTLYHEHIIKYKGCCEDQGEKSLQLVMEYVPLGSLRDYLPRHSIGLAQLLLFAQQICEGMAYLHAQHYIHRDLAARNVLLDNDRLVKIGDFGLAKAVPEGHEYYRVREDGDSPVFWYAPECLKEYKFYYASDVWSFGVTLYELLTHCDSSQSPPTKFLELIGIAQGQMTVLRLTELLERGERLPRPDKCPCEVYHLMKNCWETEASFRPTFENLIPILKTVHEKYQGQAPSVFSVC
Assay: TYK2 inhibition assay
Format: biochemical
Details: recombinant human TYK2 catalytic domain, polyGT substrate
IC50 for assorted compounds
test-readout: IC50

{"compound": "CCc1cc(-c2cnc(C(C)C)nc2)ccc1N(C)c1cc2c(cn1)ncn2C [Compound 140]", "experimental-value": "101 to 500 nM"}
{"compound": "CCc1cn(C2(CC#N)CN(C(=O)OC(C)(C)C)C2)nc1N(C)c1cc2c(cn1)ncn2C [Compound 308]", "experimental-value": "> 1000 nM"}
{"compound": "CCc1cc(C2=CCN(C(=O)COC)CC2)ccc1N(C)c1cc2c(cn1)ncn2C [Compound 199]", "experimental-value": "0.01 to 100 nM"}
{"compound": "CCc1cc(C2(CC#N)COC2)ccc1N(C)c1cc2c(cn1)ncn2C [Compound 389]", "experimental-value": "0.01 to 100 nM"}
{"compound": "CCc1cc(C2(CCNS(C)(=O)=O)COC2)ccc1N(C)c1cc2c(cn1)ncn2C [Compound 392]", "experimental-value": "0.01 to 100 nM"}
{"compound": "CCc1cc(-c2ccc(CNC(=O)OC(C)(C)C)s2)ncc1N(C)c1cc2c(cn1)ncn2C [Compound 302]", "experimental-value": "101 to 500 nM"}
{"compound": "CCc1cc(C2CN(S(=O)(=O)C(F)F)C2)ccc1N(C)c1cc2c(cn1)ncn2C [Compound 354]", "experimental-value": "0.01 to 100 nM"}
{"compound": "CCc1cc(C(=O)NCC#N)ccc1N(C)c1cc2c(cn1)ncn2C [Compound 120]", "experimental-value": "101 to 500 nM"}
{"compound": "CCc1cc(CNC(=O)NC)ccc1N(C)c1cc2c(cn1)ncn2C [Compound 270]", "experimental-value": "> 1000 nM"}
{"compound": "CCc1cc(C(=O)NCC(C)(C)O)ccc1N(C)c1cc2c(cn1)ncn2C [Compound 161]", "experimental-value": "> 1000 nM"}
{"compound": "CCc1cc(C2CN(CC#N)C2)ncc1N(C)c1cc2c(cn1)ncn2C [Compound 331]", "experimental-value": "501 to 1000 nM"}
{"compound": "CCc1cc(-c2cscn2)ccc1N(C)c1cc2c(cn1)ncn2C [Compound 150]", "experimental-value": "0.01 to 100 nM"}
{"compound": "CCc1cc(-c2cnn(Cc3cccc(OC)c3)c2)ccc1N(C)c1cc2c(cn1)ncn2C [Compound 236]", "experimental-value": "0.01 to 100 nM"}
{"compound": "CN(c1cc2c(cn1)ncn2C)c1ccc(C2CN(S(=O)(=O)N(C)C)C2)cc1OC(F)F [Compound 369]", "experimental-value": "101 to 500 nM"}
{"compound": "CCc1cc(C2CN(S(=O)(=O)C(C)C)C2)ncc1N(C)c1cc2c(cn1)ncn2C [Compound 330]", "experimental-value": "> 1000 nM"}
{"compound": "CCc1cc(C2CN(C(=O)C3CCOCC3)C2)ncc1N(C)c1cc2c(cn1)ncn2C [Compound 337]", "experimental-value": "> 1000 nM"}
{"compound": "CCc1cc(N2CCCC2=O)ncc1N(C)c1cc2c(cn1)ncn2C [Compound 318]", "experimental-value": "> 1000 nM"}
{"compound": "CCc1cc(C2=CCN(C(=O)C(C)OC)CC2)ccc1N(C)c1cc2c(cn1)ncn2C (stereo not shown) [Compound 250]", "experimental-value": "0.01 to 100 nM"}
{"compound": "CCc1cc(C2CCN(C(=O)CC#N)CC2)ccc1N(C)c1cc2c(cn1)ncn2C [Compound 224]", "experimental-value": "0.01 to 100 nM"}
{"compound": "CCc1ccccc1N(CCN1CCCC1)c1cc2c(cn1)ncn2C [Compound 459]", "experimental-value": "> 1000 nM"}
{"compound": "CCc1cc(-c2cnn(Cc3ccc(Cl)cc3)c2)ccc1N(C)c1cc2c(cn1)ncn2C [Compound 239]", "experimental-value": "101 to 500 nM"}
{"compound": "CCc1cc(C2=CCN(C(=O)C(C)NC(=O)OC(C)(C)C)CC2)ccc1N(C)c1cc2c(cn1)ncn2C (stereo not shown) [Compound 249]", "experimental-value": "0.01 to 100 nM"}
{"compound": "CCc1cc(CNC(=O)OC)ccc1N(C)c1cc2c(cn1)ncn2C [Compound 191]", "experimental-value": "101 to 500 nM"}
{"compound": "CCc1cc(C2CCN(C(=O)C(C)O)CC2)ccc1N(C)c1cc2c(cn1)ncn2C (stereo not shown) [Compound 235]", "experimental-value": "0.01 to 100 nM"}
{"compound": "CCc1cc(N2CC[C@H](F)C2)ncc1N(C)c1cc2c(cn1)ncn2C [Compound 415]", "experimental-value": "0.01 to 100 nM"}
{"compound": "Cc1ccc(Oc2ccc(C#N)nc2)cc1N(C)c1cc2c(cn1)ncn2C [Compound 91]", "experimental-value": "> 1000 nM"}
{"compound": "CCc1ccccc1N(CCC#N)c1cc2c(cn1)ncn2C [Compound 464]", "experimental-value": "> 1000 nM"}
{"compound": "Cc1cc(O)ccc1N(C)c1cc2c(cn1)ncn2C [Compound 38]", "experimental-value": "101 to 500 nM"}
{"compound": "CN(c1cc2c(cn1)ncn2C)c1ccc(C2CN(C(=O)N3CCOCC3)C2)cc1OC(F)F [Compound 368]", "experimental-value": "> 1000 nM"}
{"compound": "CCc1cc(CN2CCOCC2)ccc1N(C)c1cc2c(cn1)ncn2C [Compound 142]", "experimental-value": "101 to 500 nM"}
{"compound": "CCc1cc(C2(C#N)CC2)ccc1N(C)c1cc2c(cn1)ncn2C [Compound 385]", "experimental-value": "0.01 to 100 nM"}
{"compound": "CN(c1cc2c(cn1)ncn2C)c1ccc(CN(C)S(C)(=O)=O)cc1OC(F)F [Compound 430]", "experimental-value": "0.01 to 100 nM"}
{"compound": "CCc1cc(C(C#N)N2CCN(C(C)=O)CC2)ccc1N(C)c1cc2c(cn1)ncn2C (stereo not shown) [Compound 396]", "experimental-value": "0.01 to 100 nM"}
{"compound": "CCc1cc(C2CN(S(C)(=O)=O)C2)ccc1N(C)c1cc2c(cn1)ncn2C [Compound 290]", "experimental-value": "0.01 to 100 nM"}
